Below, each of the compounds is paired with its reported Antagonism 1 μM Inhibition (%) value.
tested on: SdiA (Salmonella enterica subsp. enterica serovar Typhimurium, UniProt O66040)
Sequence (O66040 entry or part of it): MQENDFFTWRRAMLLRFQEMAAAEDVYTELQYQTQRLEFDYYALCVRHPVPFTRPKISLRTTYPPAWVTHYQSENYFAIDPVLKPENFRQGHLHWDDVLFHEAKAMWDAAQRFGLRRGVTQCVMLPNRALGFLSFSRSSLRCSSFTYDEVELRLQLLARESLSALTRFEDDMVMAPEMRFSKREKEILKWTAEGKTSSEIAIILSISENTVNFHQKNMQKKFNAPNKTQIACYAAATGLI
experimental protocol: S. Typhimurium-pJNS25 SdiA reporter, competitive antagonism against 10 nM L-OOHL
Type: cell-based
study conditions: 1 μM compound; average ± STD, change in activity from 10 nM 2 (OOHL)
Entry rule: numbers only, all in %.

                                   compound                                 tested_on                   endpoint_name  reported_value
0  O=C1C=C(Br)C(=CBr)O1 [compound 21, reference compound]  SdiA (Salmonella enterica subsp. enterica serovar Typhimurium, UniProt O66040)  Antagonism 1 μM Inhibition (%)              29
1  O=C(CCc1ccc(Br)cc1)N[C@H]1CCOC1=O [compound 8, reference compound]  SdiA (Salmonella enterica subsp. enterica serovar Typhimurium, UniProt O66040)  Antagonism 1 μM Inhibition (%)              15
2  O=C(Cc1c(F)c(F)c(F)c(F)c1F)N[C@H]1CCOC1=O [C16]  SdiA (Salmonella enterica subsp. enterica serovar Typhimurium, UniProt O66040)  Antagonism 1 μM Inhibition (%)               5

Task: API: value(readout=Antagonism 1 μM Inhibition (%), system=SdiA (Salmonella enterica subsp. enterica serovar Typhimurium, UniProt O66040)) for record O=C(Cc1ccc(Cl)cc1)N[C@H]1CCOC1=O [C5]
Result: 13

Task: Now consider CC(C)Oc1ccc(C(=O)N[C@H]2CCOC2=O)cc1 [R3] .
Result: 23

====

tested on: UniProtKB O66040
experimental protocol: S. Typhimurium-pJNS25 SdiA reporter, competitive antagonism against 10 nM L-OOHL
Assay type: cell-based
study conditions: 100 μM compound; average ± STD, change in activity from 10 nM 2 (OOHL)
Just a reminder that ties go to Condition not met: only Antagonism 100 μM Inhibition (%) strictly below 10% counts as Condition met.

In [3]: df
Out[3]:
                                   compound        class_label
0  CCCCCCCCCC(=O)NC1CCCC1 [compound 17, reference compound]  Condition not met

Task: Problem: For the compound `O=C(Cc1c[nH]c2ccccc12)N[C@H]1CCOC1=O` , is Antagonism 100 μM Inhibition (%) under 10%?
Result: Condition not met

Task: And for CCCCCCC(=O)N[C@H]1CCOC1=O [compound 4, reference compound] ?
Result: Condition not met

Task: Now the compound `O=C(N[C@H]1CCOC1=O)C1CCCCC1`
Result: Condition not met

Task: Do the same for `CCCCCCCCCCCC(=O)N[C@H]1CCSC1=O` please
Result: Condition met

Task: And `O=C(Cc1cc(C(F)(F)F)cc(C(F)(F)F)c1)N[C@H]1CCOC1=O` ?
Result: Condition not met

====

# reported Antagonism 1 μM Inhibition (%); entries follow
tested on: SdiA (Salmonella enterica subsp. enterica serovar Typhimurium)
experimental protocol: S. Typhimurium-pJNS25 SdiA reporter, competitive antagonism against 10 nM L-OOHL
Assay type: cell-based
study conditions: 1 μM compound; average ± STD, change in activity from 10 nM 2 (OOHL)
# value in %; strip the unit string

The following molecules have reported results that may help.
>>> print(df.to_string())
                    chemical_structure  reported_value
0   CCCCOc1ccc(C(=O)N[C@H]2CCOC2=O)cc1              23
1    CCCOc1ccc(C(=O)N[C@H]2CCOC2=O)cc1              16
2           CCCCCCCC(=O)N[C@H]1CCOC1=O              10
3  CCCCCOc1ccc(C(=O)N[C@H]2CCOC2=O)cc1              10
4         CCCCCCCCCC(=O)N[C@H]1CCOC1=O              12
5   O=C(Cc1ccc2ccccc2c1)N[C@H]1CCOC1=O             -13

Task: What Antagonism 1 μM Inhibition (%) appears in the records for this molecule with SdiA (Salmonella enterica subsp. enterica serovar Typhimurium)? `O=C(N[C@H]1CCOC1=O)c1ccc(Br)cc1`
Result: 25

Task: Record: `O=C(N[C@H]1CCOC1=O)c1ccc2c(c1)OCO2`
Result: 7

Task: Quick one: `O=C(CC(=O)N[C@H]1CCOC1=O)Cc1cccc(Cl)c1`
Result: 12

Task: Moving on to the next molecule: `O=C(Cc1cccc([N+](=O)[O-])c1)NC1CCCC1`
Result: 4

Task: Further, for `O=C(N[C@H]1CCOC1=O)c1ccc(Cl)cc1` ?
Result: 30

====

tested on: SdiA (Salmonella enterica subsp. enterica serovar Typhimurium)
experimental protocol: S. Typhimurium-pJNS25 SdiA reporter, competitive antagonism against 10 nM L-OOHL
Assay type: cell-based
study conditions: 100 μM compound; average ± STD, change in activity from 10 nM 2 (OOHL)
Given measured Antagonism 100 μM Inhibition (%), output met if it is greater than or equal to 10% and not met if not.

Some solved entries appear below for comparison.
                                   compound                                 tested_on  class_label
0      O=C(Cc1cccc(F)c1)N[C@H]1CCOC1=O [C3]  SdiA (Salmonella enterica subsp. enterica serovar Typhimurium)      not met
1  O=C(CCc1c[nH]c2ccccc12)N[C@H]1CCOC1=O [B14]  SdiA (Salmonella enterica subsp. enterica serovar Typhimurium)          met
2  O=C(Cc1cccc([N+](=O)[O-])c1)NCc1cccc([N+](=O)[O-])c1 [F55]  SdiA (Salmonella enterica subsp. enterica serovar Typhimurium)          met
3     O=C(Cc1ccc(O)cc1)N[C@H]1CCOC1=O [C23]  SdiA (Salmonella enterica subsp. enterica serovar Typhimurium)          met
4             CCCCCC(=O)N[C@H]1CCSC1=O [F7]  SdiA (Salmonella enterica subsp. enterica serovar Typhimurium)      not met

Task: Is Antagonism 100 μM Inhibition (%) for O=C(N[C@H]1CCOC1=O)c1ccc(F)cc1 [Q3] at or above 10%?
Result: not met

Task: Try the compound O=C(Cc1ccccc1)N[C@H]1CCSC1=O [F9]
Result: not met

Task: Also need O=C(Cc1ccccc1Cl)N[C@H]1CCOC1=O [C7] , thanks.
Result: not met

Task: Again, but for O=C(N[C@H]1CCOC1=O)c1cccc(Br)c1 [Q2]
Result: not met

Task: Query O=C(CCc1ccc([N+](=O)[O-])cc1)N[C@H]1CCOC1=O [E37] next
Result: met

Task: Same read-out for CCCCCCCCCC(=O)CC(=O)Nc1cccc(OC)c1 [compound 14, reference compound] ?
Result: met

Task: Same question, O=C(N[C@H]1CCOC1=O)c1ccc(-c2csnn2)cc1 [D10] this time
Result: met

Task: Thanks! And COc1ccc(CC(=O)N[C@H]2CCOC2=O)cc1 [C24] ?
Result: not met

====

tested on: SdiA (Salmonella enterica subsp. enterica serovar Typhimurium)
experimental protocol: S. Typhimurium-pJNS25 SdiA reporter, agonism (luminescence)
Format: cell-based
study conditions: maximal activity (efficacy) from agonism dose–response; 10 μM OOHL = 100%, DMSO = 0%; read-out: activation (%)
Each entry below carries its recorded Emax.
Write the number in % without appending the unit.

# example entries with known answers
>>> df
                 chemical_structure                                 tested_on  endpoint_unit  reported_value
0   O=C(Cc1cccc(I)c1)N[C@H]1CCOC1=O  SdiA (Salmonella enterica subsp. enterica serovar Typhimurium)              %              90
1       O=C(CC1CCCC1)N[C@H]1CCOC1=O  SdiA (Salmonella enterica subsp. enterica serovar Typhimurium)              %              93
2  CSc1cccc(CC(=O)N[C@H]2CCOC2=O)c1  SdiA (Salmonella enterica subsp. enterica serovar Typhimurium)              %              91

Task: Quick one: Emax of `COc1ccc(CC(=O)N[C@H]2CCSC2=O)cc1` ?
Result: 84

Task: Thanks! And `O=C(CCC1CCCCC1)N[C@H]1CCOC1=O` ?
Result: 93

====

Reported inhibition at 1 µM values are given for each entry in this list.
tested on: SdiA (Salmonella enterica subsp. enterica serovar Typhimurium, UniProt O66040)
experimental protocol: S. Typhimurium-pJNS25 SdiA reporter, competitive antagonism against 10 nM L-OOHL
Type: cell-based
study conditions: 1 μM compound; average ± STD, change in activity from 10 nM 2 (OOHL); read-out: Antagonism 1 μM Inhibition (%)
Experimental: Biological assays for SdiA activity. Cell-based reporter strains that rely on detecting the transcriptional activity of LuxR-type receptors are commonly used to assess the activity of exogenous ligands. We used the S. Typhimurium-pJNS25 reporter strain constructed by Smith and Ahmer and also used by Janssens et al. to examine SdiA activity. […] SdiA activity is then measured using standard β-galactosidase assays. […]
A number alone suffices; assume %.

>>> print(df.to_string())
                                   compound                                 tested_on  reported_value
0  O=C(Cc1cccc([N+](=O)[O-])c1)N[C@H]1CCSC1=O [F11]  SdiA (Salmonella enterica subsp. enterica serovar Typhimurium, UniProt O66040)             -11
1     O=C(Cc1cccc(I)c1)N[C@H]1CCOC1=O [C11]  SdiA (Salmonella enterica subsp. enterica serovar Typhimurium, UniProt O66040)              15
2  CCOC(=O)CNC(=O)Cc1cccc([N+](=O)[O-])c1 [F40]  SdiA (Salmonella enterica subsp. enterica serovar Typhimurium, UniProt O66040)              21

Would you kindly look at the next entry?
Task: Need inhibition at 1 µM, item O=C(COc1ccc(I)cc1)N[C@H]1CCOC1=O [E22]
Result: -5
